tested on: Blood; experiment: Drug level in peripheral blood of patient with cancer at 3.6 g/day by HPLC; format: ADME, tissue-based; settings: human, read-out: Drug uptake
Metric: concentration (nM)
Your answer should be a plain number; it is taken to be in nM.

Input: // query concentration value for entry COc1cc(/C=C/C(=O)CC(=O)/C=C/c2ccc(O)c(OC)c2)ccc1O
Output: 1300

---

assay: Plasma concentration in healthy Sprague-Dawley rat at 500 mg/kg, po administered as single dose after 2 hrs; format: ADME, organism-based; set-up: dose 500 mg/kg, route oral; conditions: read-out: Drug uptake
Metric: concentration at 2 h (ng/mL)
Respond with the bare value in ng/mL.

Input: Please give the measured concentration at 2 h for this molecule: COc1cc(/C=C/C(=O)CC(=O)/C=C/c2ccc(O)c(OC)c2)ccc1O
Output: 40
